Assay: qHTS for Inhibitors of the Functional Ribonucleoprotein Complex (vRNP) of Lassa (LASV) Arenavirus: Viability assay - alamar blue signal for LASV Primary Screen (AID 1347083); further: nearly all actives have a fitted effect of over 80% in size
Conditions: cell viability, alamar blue fluorescence (LASV minigenome counter-screen); series mostly up to 57.5 µM
Results filed as inconclusive are left out. Active and inactive are the calls of the source. The call rests on the fitted dose curve; tested in HEK293 reporter line.
Use one of these outcomes when replying: 1 = active, 0 = inactive

Sample answers from the record:
molecule: CCCCCCC[C@@H](C/C=C/CCC(=O)N(C)C/C(=C/Cl)C/C(=C\C(=O)N1CC(OC)=CC1=O)OC)OC
label-value: 0
--
molecule: N[C@H](C(=O)O)c1cc(O)cc(O)c1
label-value: 0
--
molecule: Cc1c(NC(=O)c2ccc(C(C)(C)C)cc2)cccc1-c1cn(C)c(=O)c(Nc2ccc(C(=O)N3CCOCC3)cc2)n1
label-value: 0
--
molecule: CCOC(=O)C1=C(O)C(=O)N(Cc2ccccc2)C1
label-value: 0
--
molecule: Nc1ncnc2c1ncn2[C@@H]1O[C@H](CO)C[C@@H]1O
label-value: 0
--
molecule: Clc1ccc([C@@H]2C[C@H]3CC[C@@H]2N3)cn1
label-value: 0
--
molecule: COc1ccc(C=CC(=O)Nc2ccccc2C(=O)O)cc1OC
label-value: 0
--
molecule: NC(C(=O)N[C@@H]1C(=O)N2C(C(=O)O)=C(Cl)CS[C@H]12)c1ccccc1 (some centres not stated)
label-value: 0

q: Lab log entry: COc1cc(O)c2c(c1)C(=O)c1cc(C)cc(O)c1C2=O — outcome as called in the assay?
a: 0

q: Lab log entry: N#CC(=C1Nc2ccccc2S1)c1ccnc(OCc2ccc(CN3CCOCC3)cc2)n1 — outcome as called in the assay?
a: 1

q: Lab log entry: CSC(N)=NCCC[C@H](N)C(=O)O — outcome as called in the assay?
a: 0

q: Lab log entry: C=C(CC[C@@H](O)C(C)(C)O)[C@H]1CC[C@]2(C)[C@@H]1CCC1[C@@]3(C)CC[C@H](O)C(C)(C)C3CC[C@]12C (some centres not stated) — outcome as called in the assay?
a: 0

q: Lab log entry: CC1=CCC(=C(C)C)CC1 — outcome as called in the assay?
a: 0

q: Lab log entry: CCN1C[C@]2(C)CC[C@H](OC)[C@@]34[C@H]1C1(OCO[C@@]15C[C@H](OC)C1C[C@]3(O)C5[C@H]1OC)[C@@H](O)[C@H]24 — outcome as called in the assay?
a: 0

q: Lab log entry: CO[C@H]1C(=O)[C@]2(C)[C@@H](OC)C[C@H]3OC[C@@]3(OC(C)=O)[C@H]2[C@H](OC(=O)c2ccccc2)[C@]2(O)C[C@H](OC(=O)[C@H](O)[C@@H](NC(=O)OC(C)(C)C)c3ccccc3)C(C)=C1C2(C)C — outcome as called in the assay?
a: 0
